- Test Description: self-splicing fitness, log relative to wild type (ln ratio); higher = more splicing; Tetrahymena group I intron in knt gene, E. coli kanamycin selection, DiMSum; sequences stand for … in CUCUCU…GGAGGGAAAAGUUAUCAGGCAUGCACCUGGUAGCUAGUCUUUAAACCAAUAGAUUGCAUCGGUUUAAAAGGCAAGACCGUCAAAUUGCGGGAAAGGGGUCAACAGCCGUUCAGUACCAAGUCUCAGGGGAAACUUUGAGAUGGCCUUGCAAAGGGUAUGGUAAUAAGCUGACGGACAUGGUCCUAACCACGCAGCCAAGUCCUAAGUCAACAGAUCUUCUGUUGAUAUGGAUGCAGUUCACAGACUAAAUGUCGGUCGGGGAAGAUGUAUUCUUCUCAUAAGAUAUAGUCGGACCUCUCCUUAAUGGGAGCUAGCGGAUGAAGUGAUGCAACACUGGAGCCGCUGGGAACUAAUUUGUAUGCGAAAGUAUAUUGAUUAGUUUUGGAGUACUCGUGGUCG;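 note: selection with 25 µg/mL kanamycin versus none on LB agar overnight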
- Reported Conditions: 37 °C
Exercise: for every item that follows, state its recorded self-splicing fitness (ln).
Lab note: jot down the number only; don't add units.

Requested field: self-splicing fitness (ln). Item: ACGCAGCAAUAUUACGCAUU
-1.89

Now try GUCGAGCAAUAUUACGGAAC .
-1.9

Now try AUCGAGCAAUAUUACGGGGU .
-2.52

Now try UGGAAGCAAUAUUACGAUAG .
-0.419

Now try AACUAGCAAUAUUACGCCCC .
-0.32

Now try CUCCAGCAAUAUUACGUCUG .
-2.54

Now try GCACAGCAAUAUUACGUAAU .
-0.0143

Now try CGGAAGCAAUAUUACGGAGC .
-1.88

Now try UCGCAGCAAUAUUACGGAAA .
-1.57

Now try GGUAAGCAAUAUUACGGUCU .
-0.0802

Now try GCCGAGCAAUAUUACGUGUU .
-1.66

Now try AGUGAGCAAUAUUACGCAAG .
-2.98

Now try UAUAAGCAAUAUUACGGUGG .
-0.746

Now try GCCGAGCAAUAUUACGGAGA .
-1.15

Now try CUCAAGCAAUAUUACGUCGU .
-1.12

Now try AAGUAGCAAUAUUACGUUUC .
-2.03

====

- Test Description: self-splicing fitness, log relative to wild type (ln ratio); higher = more splicing; Tetrahymena group I intron in knt gene, E. coli kanamycin selection, DiMSum; sequences stand for … in CUCUCU…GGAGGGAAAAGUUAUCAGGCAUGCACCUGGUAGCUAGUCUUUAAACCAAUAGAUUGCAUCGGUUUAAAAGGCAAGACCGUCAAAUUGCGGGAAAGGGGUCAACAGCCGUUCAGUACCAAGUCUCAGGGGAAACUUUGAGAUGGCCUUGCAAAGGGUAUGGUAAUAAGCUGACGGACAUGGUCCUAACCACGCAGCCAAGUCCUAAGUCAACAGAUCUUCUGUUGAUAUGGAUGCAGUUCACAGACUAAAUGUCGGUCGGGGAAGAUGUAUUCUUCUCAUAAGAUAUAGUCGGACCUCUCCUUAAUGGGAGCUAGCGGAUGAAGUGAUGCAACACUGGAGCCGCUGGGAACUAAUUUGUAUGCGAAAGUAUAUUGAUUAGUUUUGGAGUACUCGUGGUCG
- Reported Conditions: 30 °C
Exercise: for every item that follows, state its recorded self-splicing fitness (ln).
Lab note: jot down the number only; don't add units.

Requested field: self-splicing fitness (ln). Item: GAACAGCAAUAUUACGGUGG
-2

Now try UUCCAGCAAUAUUACGAGGG .
-3.28

Now try UGCCAGCAAUAUUACGUCGA .
-1.17

Now try UAUCAGCAAUAUUACGGGGA .
-1.76

Now try GCGUAGCAAUAUUACGUCCC .
-0.245

Now try GUGCAGCAAUAUUACGGCUA .
-0.0246

Now try CUGCAGCAAUAUUACGAUGG .
-1.7

Now try AUGGAGCAAUAUUACGAGUU .
-4.04

Now try CAGGAGCAAUAUUACGGGAC .
-2.88

Now try UGGUAGCAAUAUUACGCGAU .
-2.54

Now try GAAAAGCAAUAUUACGACUA .
0.0422

Now try ACCAAGCAAUAUUACGAUGA .
-1.97

Now try UGUAAGCAAUAUUACGAUAU .
-3.01

Now try CGCUAGCAAUAUUACGAUAC .
-3.07

Now try GAGUAGCAAUAUUACGUAUG .
-2.85

Now try AUUUAGCAAUAUUACGCCGA .
-1.94
